- Assay remarks: Oral bioavailability in mice, Method B
- Format: in vivo
- Condition info: male, mouse; brain, CD-1 mice, 10 mg/kg po, Method B
# reported Cmax; entries follow
Provide the reading as a plain figure in ng/g.

Some compounds with known Cmax results, for comparison:
N[C@]1(c2ccccc2)CCCCC1=O [Compound 11S, (S)-2-amino-2-phenyl-cyclohexan-1-one] : 2190
Cc1ccccc1[C@]1(N)CCCCC1=O [Compound 114R, (R)-2-amino-2-(o-tolyl)cyclohexan-1-one] : 683
Cc1ccccc1[C@@]1(N)CCCCC1=O [Compound 114S, (S)-2-amino-2-(o-tolyl)cyclohexan-1-one] : 825
N[C@@]1(c2ccccc2)CCCCC1=O [Compound 11R, (R)-2-amino-2-phenyl-cyclohexan-1-one] : 1470
CN[C@]1(c2cccc(F)c2)CCCCC1=O [Compound 19S] : 436

Okay, now this compound:
Form field Cmax, entry [2H]C([2H])([2H])N[C@@]1(c2ccccc2)CCCCC1=O [Compound 88R] : 3100

---

- Assay remarks: Oral bioavailability in mice, Method B
- Format: in vivo
- Condition info: male, mouse; plasma, CD-1 mice, 10 mg/kg po, Method B: values represent AUC0-last (footnote); read-out: AUC0-inf (po) (converted)
Criterion: AUC(0-inf) meeting or surpassing 1000 ng·h/mL. Met: Yes. Not met: No.

[2H]C([2H])([2H])N[C@@]1(c2ccccc2)CCCCC1=O [Compound 88R] : No
Cc1ccccc1[C@@]1(N)CCCCC1=O [Compound 114S, (S)-2-amino-2-(o-tolyl)cyclohexan-1-one] : Yes
CN[C@]1(c2cccc(F)c2)CCCCC1=O [Compound 19S] : No
N[C@@]1(c2ccccc2)CCCCC1=O [Compound 11R, (R)-2-amino-2-phenyl-cyclohexan-1-one] : Yes
N[C@]1(c2ccccc2)CCCCC1=O [Compound 11S, (S)-2-amino-2-phenyl-cyclohexan-1-one] : Yes

With those in mind, consider the next molecule.
IN: Please indicate if the recorded AUC(0-inf) for Cc1ccccc1[C@]1(N)CCCCC1=O [Compound 114R, (R)-2-amino-2-(o-tolyl)cyclohexan-1-one] meets or exceeds 1000 ng·h/mL.
OUT: No

---

- Target under test: dopamine transporter (DAT) (Homo sapiens)
- Construct: expressed in transfected cells; host or cells: CHO (uptake)
- Sequence (Q01959 whole entry, species assumed): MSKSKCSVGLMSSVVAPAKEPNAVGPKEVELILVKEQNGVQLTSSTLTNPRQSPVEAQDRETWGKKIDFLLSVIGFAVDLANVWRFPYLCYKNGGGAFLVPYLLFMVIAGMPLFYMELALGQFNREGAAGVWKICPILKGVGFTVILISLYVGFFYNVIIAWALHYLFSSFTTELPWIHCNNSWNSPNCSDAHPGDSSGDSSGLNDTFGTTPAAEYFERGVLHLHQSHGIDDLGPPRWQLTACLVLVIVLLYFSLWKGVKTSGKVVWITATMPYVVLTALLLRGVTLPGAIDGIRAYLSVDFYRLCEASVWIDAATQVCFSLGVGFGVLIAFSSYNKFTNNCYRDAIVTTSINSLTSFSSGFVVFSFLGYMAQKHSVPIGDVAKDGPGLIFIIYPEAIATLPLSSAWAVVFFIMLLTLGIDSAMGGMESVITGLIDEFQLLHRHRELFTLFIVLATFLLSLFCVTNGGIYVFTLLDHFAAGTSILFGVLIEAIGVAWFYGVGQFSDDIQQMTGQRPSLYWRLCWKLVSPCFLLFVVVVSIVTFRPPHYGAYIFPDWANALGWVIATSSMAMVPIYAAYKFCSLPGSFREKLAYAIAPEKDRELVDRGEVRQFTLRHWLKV
- Assay remarks: Fluorescent substrate uptake inhibition, DAT
- Assay type: cell-based
- Condition info: 10 μM, CHO cells expressing DAT
Quick reference for inhibition at 10 µM among some molecules
Give the value in % but do not write % after it.

Recorded inhibition at 10 µM, per entry:
Cc1ccc(C2(N)CCCCC2=O)cc1 (racemic) [Compound 120rac, 2-amino-2-(p-tolyl)cyclohexan-1-one] : 5.3
COCCN[C@]1(c2ccccc2)CCCCC1=O [Compound 29S] : 13.7
N[C@]1(c2ccccc2)CCCCC1=O [Compound 11S, (S)-2-amino-2-phenyl-cyclohexan-1-one] : 10.1
CCN(CC)[C@]1(c2ccccc2)CCCCC1=O [Compound 25S] : 24.9
CN[C@]1(c2cccc(F)c2)CCCCC1=O [Compound 19S] : 18.1

# inhibition at 10 µM of O=C1CCCC[C@]1(c1ccccc1)N1CCOCC1 [Compound 31R] = 9.8

Lookup result for CCN(CC)[C@@]1(c2ccccc2)CCCCC1=O [Compound 25R] ; measured inhibition at 10 µM: 20.8

meta.source: patent US11344510B2
